The values you see were collected from PubChem BioAssay (NCI).

EXPERIMENT: NCI Yeast Anticancer Drug Screen. Data for the rad50 strain (AID 155);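 further: 0% = growth of vehicle-only cultures of the same strain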
MEASUREMENT PARAMETERS: S. cerevisiae rad50 strain growth inhibition; at 50.0 µM; hits give high values
About 79,000 compounds went through this panel and 15% of them were active in at least one assay; those are over-represented in the sample as a whole.
MEASUREMENT NAME: growth inhibition (%)
Number only, in %; omit the unit.

* O=C(Nc1ccccc1)c1cc(S(=O)(=O)n2cc[nH]c2=O)c(S)cc1Cl | 9.5
* O=[N+]([O-])C(C=C(n1nnc2ccccc21)n1nnc2ccccc21)=C(n1nnc2ccccc21)n1nnc2ccccc21 | -20.1
* Cc1cc(N)ccc1N=Nc1ccc(Sc2ccc(N=Nc3c(S(=O)(=O)O)cc4cc(S(=O)(=O)O)c(N=Nc5ccc([N+](=O)[O-])cc5)c(N)c4c3O)cc2)cc1 | -77
* CC(/C=C/c1ccccc1)=N\O | 9.4
* CC(=O)COc1ccccc1-c1ccccc1 | 5.4

**Query** Given COC(=O)C(Cc1[nH]c(N=Nc2ccc(Br)cc2)nc1N=Nc1ccc(Br)cc1)NC(C)=O (configuration not stated) , state its recorded growth inhibition.
**Result** 43

**Query** Given O=c1cccc(O)[nH]1 , state its recorded growth inhibition.
**Result** -14.8

**Query** Given CCC(C)(C#N)OC(C)=O (configuration not stated) , state its recorded growth inhibition.
**Result** -3.75

**Query** Given COc1ccc(-c2cc(-c3cc(-c4ccc(OC)cc4)on3)no2)cc1 , state its recorded growth inhibition.
**Result** -1.6
